Assay: excess molar enthalpy (molar enthalpy of mixing); xn = mol fraction of the nth substance listed
Conditions: 298.15 K; 101 kPa; Liquid; isothermal titration calorimeter; x1 = 0.9401
Quantity Name: excess molar enthalpy (kcal/mol)
Numeric only. Scale: kcal/mol

Worked cases, excess molar enthalpy given:
- c1cc[nH]c1 [pyrrole] + CCCCO: 0.0761
- c1cc[nH]c1 [pyrrole] + CCCCCO: 0.084

*Q* Give a short answer stating reported excess molar enthalpy for c1cc[nH]c1 [pyrrole] + c1ccncc1 .
*A* -0.0953

*Q* Give a short answer stating reported excess molar enthalpy for c1cc[nH]c1 [pyrrole] + CCCO .
*A* 0.0658
